- experimental.target: UniProt Q9UBN7
- Sequence (Q9UBN7 whole entry): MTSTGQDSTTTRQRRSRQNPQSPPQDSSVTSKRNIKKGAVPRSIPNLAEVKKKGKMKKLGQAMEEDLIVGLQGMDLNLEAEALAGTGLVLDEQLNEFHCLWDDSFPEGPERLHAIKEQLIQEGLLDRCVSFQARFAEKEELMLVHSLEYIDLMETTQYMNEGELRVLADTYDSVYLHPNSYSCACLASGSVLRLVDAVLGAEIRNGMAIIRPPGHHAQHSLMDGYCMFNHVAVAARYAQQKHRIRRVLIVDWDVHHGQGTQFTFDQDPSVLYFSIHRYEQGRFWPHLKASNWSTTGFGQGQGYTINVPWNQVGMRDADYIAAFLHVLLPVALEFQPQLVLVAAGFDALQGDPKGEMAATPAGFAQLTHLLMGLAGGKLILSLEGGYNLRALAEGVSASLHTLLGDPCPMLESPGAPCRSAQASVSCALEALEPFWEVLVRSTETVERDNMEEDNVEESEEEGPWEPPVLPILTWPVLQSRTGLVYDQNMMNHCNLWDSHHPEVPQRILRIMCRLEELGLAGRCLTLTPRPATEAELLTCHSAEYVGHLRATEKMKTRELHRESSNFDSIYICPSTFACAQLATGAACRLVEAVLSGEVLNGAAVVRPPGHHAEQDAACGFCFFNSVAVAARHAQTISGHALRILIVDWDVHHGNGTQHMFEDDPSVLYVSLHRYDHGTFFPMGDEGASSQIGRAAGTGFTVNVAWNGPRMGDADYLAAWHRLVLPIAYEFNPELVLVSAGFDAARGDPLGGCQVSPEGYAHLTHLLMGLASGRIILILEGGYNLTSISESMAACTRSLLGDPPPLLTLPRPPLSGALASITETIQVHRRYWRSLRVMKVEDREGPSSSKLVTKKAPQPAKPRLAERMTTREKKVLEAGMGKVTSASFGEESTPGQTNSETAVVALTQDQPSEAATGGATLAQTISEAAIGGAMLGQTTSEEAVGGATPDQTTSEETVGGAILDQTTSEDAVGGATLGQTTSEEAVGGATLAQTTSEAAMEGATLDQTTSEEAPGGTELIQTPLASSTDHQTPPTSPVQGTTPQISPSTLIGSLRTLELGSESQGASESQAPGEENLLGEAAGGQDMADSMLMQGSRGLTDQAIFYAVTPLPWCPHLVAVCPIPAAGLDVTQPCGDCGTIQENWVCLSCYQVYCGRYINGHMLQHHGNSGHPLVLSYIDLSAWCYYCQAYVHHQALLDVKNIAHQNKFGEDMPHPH
- measurement.protocol: Inhibition of HDAC6 in human HCT116 cells assessed as inhibition of alpha-tubulin deacetylation
- Assay type: cell-based, HCT-116
reported.metric: IC50 (nM)

{"smiles.str": "CCCS(=O)(=O)Cc1noc(-c2ccc(C(=O)C(F)(F)F)s2)n1", "reported.metric": "IC50", "result": 500}
{"smiles.str": "CS(=O)(=O)Cc1noc(-c2ccc(C(=O)C(F)(F)F)s2)n1", "reported.metric": "IC50", "result": 640}

* * *

Here's what we have: IC50 numbers for Histone deacetylase 3 (Homo sapiens, UniProt O15379).

{"smiles.str": "CS(=O)(=O)Cc1noc(-c2ccc(C(=O)C(F)(F)F)s2)n1", "IC50": "> 1000 nM"}
{"smiles.str": "O=C(c1ccc(-c2nc(Cc3cccs3)no2)s1)C(F)(F)F", "IC50": "630 nM"}
{"smiles.str": "O=C1COc2ccccc2N1Cc1noc(-c2ccc(C(=O)C(F)(F)F)s2)n1", "IC50": "> 1000 nM"}
{"smiles.str": "CC(C)(C)c1ccc(-c2noc(-c3ccc(C(=O)C(F)(F)F)s3)n2)cc1", "IC50": "> 1000 nM"}
{"smiles.str": "O=C(c1ccc(-c2nc(-c3ccccc3)no2)s1)C(F)(F)F", "IC50": "> 1000 nM"}
{"smiles.str": "CCCS(=O)(=O)Cc1noc(-c2ccc(C(=O)C(F)(F)F)s2)n1", "IC50": "> 1000 nM"}
{"smiles.str": "Cc1ccc(-c2nnc(-c3ccc(C(=O)C(F)(F)F)s3)o2)cc1", "IC50": "> 1000 nM"}
{"smiles.str": "O=C(c1ccc(-c2nc(CS(=O)(=O)c3cccs3)no2)s1)C(F)(F)F", "IC50": "> 1000 nM"}
{"smiles.str": "CCNC(=O)c1ccc(C(=O)C(F)(F)F)s1", "IC50": "> 10000 nM"}
